system: LOC_OS03G12390-cb001; test: thermal shift delta Tm vs DMSO control; higher = stronger stabilization (binding); details: 12.5 µM; protein concentration 2 µM;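 also: purified Escherichia coli-expressed rice kinase domain construct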
parameter_measured: thermal shift delta Tm (°C)

>>> endpoint_value("N#CC(=C(/N)Sc1ccccc1N)/C(C#N)=C(\\N)Sc1ccccc1N")
1.33
>>> endpoint_value("NC(=O)c1ncn([C@@H]2O[C@H](CO)[C@@H](O)[C@H]2O)c1N")
0.15
>>> endpoint_value("CS(=O)(=O)N1CCN(Cc2cc3nc(-c4cccc5[nH]ncc45)nc(N4CCOCC4)c3s2)CC1")
0.14
>>> endpoint_value("FC(F)c1nc2ccccc2n1-c1nc(N2CCOCC2)nc(N2CCOCC2)n1")
0.51
>>> endpoint_value("COc1cccc(-n2c(=O)[nH]c3cc(Cl)n(-c4ccc(-c5cccc(OC)c5O)cc4)c3c2=O)c1")
0.12
>>> endpoint_value("COCC(=O)NC/C=C/c1ccc2ncnc(Nc3ccc(Oc4ccc(C)nc4)c(C)c3)c2c1")
-0.25
>>> endpoint_value("OC(c1cc(-c2ccc(Cl)cc2)nc2ccccc12)C1CCCCN1 (centres undefined)")
0.39
>>> endpoint_value("CCN1CCN(Cc2ccc(Nc3ncc(F)c(-c4cc(F)c5nc(C)n(C(C)C)c5c4)n3)nc2)CC1")
1.39
>>> endpoint_value("CC(C)Oc1ccc(-c2nn([C@@H](C)c3oc4ccc(F)cc4c(=O)c3-c3cccc(F)c3)c3ncnc(N)c23)cc1F")
-0.28
